# systemTested: hIDO2 (Homo sapiens, UniProt Q6ZQW0)
# Construct: purchased Vinci-Biochem
# Sequence (Q6ZQW0 whole entry): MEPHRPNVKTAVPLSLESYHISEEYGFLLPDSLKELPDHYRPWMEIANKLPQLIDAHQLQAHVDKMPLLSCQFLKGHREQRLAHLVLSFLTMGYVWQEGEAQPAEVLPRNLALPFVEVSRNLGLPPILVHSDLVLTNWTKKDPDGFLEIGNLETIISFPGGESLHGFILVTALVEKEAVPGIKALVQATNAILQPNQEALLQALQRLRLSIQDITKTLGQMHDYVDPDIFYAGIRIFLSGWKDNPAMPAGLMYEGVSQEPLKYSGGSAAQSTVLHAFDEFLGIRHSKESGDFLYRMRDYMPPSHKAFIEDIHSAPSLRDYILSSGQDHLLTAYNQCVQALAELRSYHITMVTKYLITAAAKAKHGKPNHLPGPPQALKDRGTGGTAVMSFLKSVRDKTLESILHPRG
# protocol: hIDO2 inhibitory potency evaluation (fluorescence assay)
# Assay type: biochemical
# measurementConditions: 100 µM compound; n.a. = not active; read-out: IDO2 % of Inhibition @ 100 µM
Parameter threshold = 20%. Response is 1 when inhibition at 100 µM meets or exceeds it, else -1.

compound	label
O=C(Cn1cnc2onc(-c3ccccc3)c2c1=O)Nc1ccc([N+](=O)[O-])cc1 [Compound 40]	-1
O=C(Cn1cnc2onc(-c3ccccc3)c2c1=O)N1CCCc2ccccc21 [Compound 38]	-1
O=C(Cn1cnc2onc(-c3ccc(F)cc3)c2c1=O)Nc1ccc2ccccc2c1 [Compound 36]	-1
O=C(Cn1cnc2onc(-c3ccc(F)cc3)c2c1=O)Nc1cccc([N+](=O)[O-])c1 [Compound 24]	1
COC(=O)c1ccc(NC(=O)Cn2cnc3onc(-c4ccccc4)c3c2=O)cc1 [Compound 39]	-1
O=C(Cn1cnc2onc(-c3ccc(F)cc3)c2c1=O)Nc1ccc([N+](=O)[O-])cc1 [Compound 25]	1
COC(=O)c1ccccc1NC(=O)Cn1cnc2onc(-c3ccc(F)cc3)c2c1=O [Compound 18]	-1
O=C(Cn1cnc2onc(-c3ccsc3)c2c1=O)Nc1ccc([N+](=O)[O-])cc1 [Compound 53]	1
O=C(Cn1cnc2onc(-c3ccc(F)cc3)c2c1=O)Nc1ccccc1 [Compound 16]	1

###

# systemTested: IDO1 (Homo sapiens)
# protocol: hIDO1 inhibitory potency evaluation (fluorescence assay, NFK-derived fluorophore)
# measurementConditions: recombinant hIDO1, mean ± SD of at least two independent determinations; read-out: IDO1 IC50
pIC50: −log10 of the molar value.

compound	pIC50
CC(C)c1ccc(NC(=O)Cn2cnc3onc(-c4ccc(F)cc4)c3c2=O)cc1 [Compound 31]	4.06
O=C(Cn1cnc2onc(-c3ccc(F)c(Br)c3)c2c1=O)Nc1ccc([N+](=O)[O-])cc1 [Compound 49]	4.02
COC(=O)c1ccc(NC(=O)Cn2cnc3onc(-c4ccc(F)cc4)c3c2=O)cc1 [Compound 20]	4.57
O=C(Cn1cnc2onc(-c3ccc(F)cc3)c2c1=O)Nc1ccc([N+](=O)[O-])cc1 [Compound 25]	4.01
O=C(Cn1cnc2onc(-c3ccc(F)cc3)c2c1=O)Nc1ccc(C2CCCCC2)cc1 [Compound 32]	4.66
O=C(Cn1cnc2onc(-c3ccc(F)cc3)c2c1=O)N1CCCc2ccccc21 [Compound 12]	4.30
O=C(Cn1cnc2onc(-c3cccs3)c2c1=O)Nc1ccc([N+](=O)[O-])cc1 [Compound 51]	4.28
O=C(Cn1cnc2onc(-c3ccc(F)c(F)c3)c2c1=O)Nc1ccc([N+](=O)[O-])cc1 [Compound 48]	4.12

###

# systemTested: IDO1 (Homo sapiens, UniProt P14902)
# Sequence (P14902 6-403): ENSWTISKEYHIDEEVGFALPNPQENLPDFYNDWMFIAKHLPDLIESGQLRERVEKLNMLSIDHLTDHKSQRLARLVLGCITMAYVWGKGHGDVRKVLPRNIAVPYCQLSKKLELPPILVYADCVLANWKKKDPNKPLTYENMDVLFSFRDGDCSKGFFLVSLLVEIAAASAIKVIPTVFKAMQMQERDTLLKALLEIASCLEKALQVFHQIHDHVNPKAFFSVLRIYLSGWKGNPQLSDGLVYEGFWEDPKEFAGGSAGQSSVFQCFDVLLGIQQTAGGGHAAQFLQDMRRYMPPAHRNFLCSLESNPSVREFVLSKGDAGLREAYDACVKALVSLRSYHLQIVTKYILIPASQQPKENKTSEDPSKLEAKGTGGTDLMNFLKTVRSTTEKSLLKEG
# protocol: hIDO1 inhibitory potency evaluation (fluorescence assay, NFK-derived fluorophore)
# Format: biochemical
# Set-up: gene encoding human IDO1 residues 6-403 His-tagged at the N-terminus; His tag (N); made in house; host or cells: Escherichia coli NiCo21
readoutType: hIDO1 inhibition (in words)

molSmiles	readoutType	recordedMeasurement
CS(=O)(=O)c1ccc(NC(=O)Cn2cnc3onc(-c4ccc(F)cc4)c3c2=O)cc1	hIDO1 inhibition (in words)	inactive
COC(=O)c1ccc(NC(=O)Cn2cnc3onc(-c4ccc(F)cc4)c3c2=O)cc1	hIDO1 inhibition (in words)	low micromolar range
N#Cc1ccc(NC(=O)Cn2cnc3onc(-c4ccc(F)cc4)c3c2=O)cc1	hIDO1 inhibition (in words)	inactive
O=C(Cn1cnc2onc(-c3ccc(F)cc3)c2c1=O)Nc1ccc(C(F)(F)F)cc1	hIDO1 inhibition (in words)	low micromolar range
O=C(Cn1cnc2onc(-c3ccc(F)cc3)c2c1=O)Nc1ccc(-c2nn[nH]n2)cc1	hIDO1 inhibition (in words)	inactive
COc1cc(NC(=O)Cn2cnc3onc(-c4ccc(F)cc4)c3c2=O)cc(OC)c1OC	hIDO1 inhibition (in words)	inactive
